I'd be grateful if you could share measured binding signal for these entries.
Target: OsSMF1 (Oryza sativa, UniProt Q6ZLB0 1-436)
Sequence: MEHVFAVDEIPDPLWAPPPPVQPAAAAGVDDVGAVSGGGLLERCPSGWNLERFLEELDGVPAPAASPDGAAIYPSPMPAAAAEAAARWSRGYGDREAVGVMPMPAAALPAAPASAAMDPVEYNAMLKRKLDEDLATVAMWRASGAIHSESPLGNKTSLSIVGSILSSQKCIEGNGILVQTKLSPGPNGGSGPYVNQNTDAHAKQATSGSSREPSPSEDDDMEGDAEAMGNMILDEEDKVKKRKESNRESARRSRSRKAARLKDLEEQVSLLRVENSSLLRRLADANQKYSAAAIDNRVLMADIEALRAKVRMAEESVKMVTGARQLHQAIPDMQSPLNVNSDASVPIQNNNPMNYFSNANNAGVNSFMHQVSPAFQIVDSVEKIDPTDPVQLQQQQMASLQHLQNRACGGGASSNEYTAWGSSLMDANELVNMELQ
Assay: protein-binding microarray (RPBM); PBS, 2% BSA, 51.3 ng/ul salmon testes DNA, 50 uM zinc acetate, 200 nM TF, 25 C, 1 h; high values mean tight binding
Details: protein: recombinant; tags: N-terminal polyhistidine and DsRed monomer fusion (pET32a); chain copies: 2; label: CyDye5-dUTP incorporated in the synthesized complementary strand; 3' TTTTT single-stranded linker to array surface; dsDNA, one strand shown
The full ranking holds about 39,000 sequences; the median of “fluorescence intensity (a.u.)” is about 4,300, and the highest 2% start at about 39,000. The full list was thinned out, with the highest values kept by preference.

Query: Which binding signal is reported for this sequence? CCCAACTGTTCTTTCCGTCACGTCACGCACAAGTCAAAATCGGAGTCACCTAGTGCAG
Result: 5230 fluorescence intensity (a.u.)

Query: Value lookup for binding signal; key = ATTGATGTTACATGCCTCGCAAGCGATGACACGGCAAGCTCGGAGTCACCTAGTGCAG
Result: 5060 fluorescence intensity (a.u.)

Query: Could you tell me which binding signal is on file for CTAAACAAAGGATGAGGCTATGAGCACCCACCAACCATACCGGAGTCACCTAGTGCAG ?
Result: 34200 fluorescence intensity (a.u.)

Query: Fill in the blank: the reported binding signal of AATAGGAAATAAACATTACTGAGAAAAGGGCTCATGTTGGCGGAGTCACCTAGTGCAG is ____.
Result: 29300 fluorescence intensity (a.u.)

Query: Suppose we examine the sequence AGTAACCGACTCCTTTCCAACGTGTTCCCCACGAAGCCGGCGGAGTCACCTAGTGCAG ; what binding signal value has been reported?
Result: 4560 fluorescence intensity (a.u.)

Query: Entry under review: TTTTAAGGGGCAAATCTTACCAACTTTTACTAGCGTGTCACGGAGTCACCTAGTGCAG . Reported binding signal?
Result: 3680 fluorescence intensity (a.u.)

Query: Using the record for ACACAGATCTGCAACCAAAACAAATGCAACACTAAACACCCGGAGTCACCTAGTGCAG , report its binding signal.
Result: 26100 fluorescence intensity (a.u.)

Query: binding signal for AGATCTGCACAACCATAACGGCTAAAGAGGAGATACCAAACGGAGTCACCTAGTGCAG ?
Result: 65500 fluorescence intensity (a.u.)

Query: Name the recorded binding signal for GTTCCACATTTCAGCATTAATGAATTGGCATACGTGATGACGGAGTCACCTAGTGCAG .
Result: 3360 fluorescence intensity (a.u.)

Ref: paper PMC7819943
